assay: melting temperature; fluorescence melt of hairpins on a sequencing array, two-state fit, raised by 9.35 °C to match UV melts; settings: sodium 0.088 M
observation_type: Tm
Answer format: number, then unit.

Return reported Tm; argument: GAAGTACGAAAGTATTTC (((.(((....))).)))
40.5 °C

Return reported Tm; argument: GCACGCGAAAGCGAGTGC ((((((....)))..)))
59.5 °C

Return reported Tm; argument: GGGTTGACGAAAGTCCCC (((..(((....))))))
42.5 °C

Return reported Tm; argument: GAGACCGAAAGGTACCTC ((((((....)))..)))
30.7 °C

Return reported Tm; argument: GCGACAGGAAACTGTCAC (.(((((....))))).)
43.8 °C

Return reported Tm; argument: GCATAGGGAAACCCATGC ((((.((....)).))))
45.5 °C

Return reported Tm; argument: GCCATGGGAAACCATAGC ((.((((....)))).))
36.5 °C

Return reported Tm; argument: GATCAGTTACCTGATC ((((((....))))))
50.9 °C

Return reported Tm; argument: CGGTCGGAAACGACCCG ((((((....))).)))
51.5 °C

Return reported Tm; argument: GCCTAGGGAAACCTGGGC (((.(((....))).)))
55.1 °C

Return reported Tm; argument: GAAAAGGGAAACCTTTTC (((((((....)))))))
50.6 °C

Return reported Tm; argument: GGAGCGGGAAACCGCCCC ((.((((....)))).))
56.7 °C

###

test: melting temperature; fluorescence melt of hairpins on a sequencing array, two-state fit, raised by 9.35 °C to match UV melts; conditions: sodium 0.088 M
observation_type: Tm

Return reported Tm; argument: GCCCAGCGAAAGCATGGC (((..((....))..)))
56 °C

Return reported Tm; argument: GCATAGCGAAAGCTAGGC ((.((((....)))).))
67 °C

Return reported Tm; argument: GTCGCCGAAAGGCTGAC ((((((....))).)))
57.1 °C

Return reported Tm; argument: GAGAGTGGAAACACTTTC ((.((((....)))).))
37.6 °C

Return reported Tm; argument: GTGCACGAAAGTGACAC ((((((....))).)))
52.9 °C

Return reported Tm; argument: GCGCTACGAAAGTACCGC (((.(((....))).)))
48.5 °C

Return reported Tm; argument: GCTTGGCGAAAGCGAGGC ((.(.((....)).).))
43.3 °C

Return reported Tm; argument: GGTATCGAAAGATTTACC ((((((....)))..)))
28.5 °C

Return reported Tm; argument: GGAAACGAAAGTTTTCC ((((((....))).)))
46.2 °C

Return reported Tm; argument: GACATGGCGAAAGCCGTC (((..(((....))))))
50.7 °C

Return reported Tm; argument: GATCACCTTAGTGATC ((((((....))))))
59.3 °C

Return reported Tm; argument: TAGGTGAAAACCTA (((((....)))))
41.1 °C

Return reported Tm; argument: GGTTCTGGAAACAGAATC (.(((((....))))).)
45 °C

Return reported Tm; argument: GTACTCTCGAAAGAGTAC (((..(((....))))))
52.5 °C

Return reported Tm; argument: GTTACACCGAAAGGTAAC (((..(((....))))))
31.8 °C

Return reported Tm; argument: GCGTAGCGAAAGCTCAGC ((..(((....)))..))
46 °C

Return reported Tm; argument: GCCGACCGAAAGGTGGGC (((.(((....))).)))
67.4 °C

Return reported Tm; argument: GGTGGCGCGAAAGCGACC (((..(((....))))))
52.8 °C

Return reported Tm; argument: GATCTGCGCTCAGATC ((((((....))))))
49.3 °C

Return reported Tm; argument: GCTACGCGAAAGCGAGGC ((..(((....)))..))
53.3 °C

Return reported Tm; argument: GTTAGCGAAAGCTAAAAC ((((((....)))..)))
33.4 °C

Return reported Tm; argument: GCGAGGCATCGC ((((....))))
57.4 °C

Return reported Tm; argument: GGCAGTGCGAAAGCAGCC (((..(((....))))))
53 °C

Return reported Tm; argument: GATGACGAAAGTCGAATC ((((((....)))..)))
33 °C

Return reported Tm; argument: GGAAGCGGAAACACTTCC (((((.(....).)))))
44.3 °C

###

test: folding enthalpy; higher = less favourable; fluorescence melt of hairpins on a sequencing array, two-state fit; conditions: sodium 0.088 M
observation_type: folding enthalpy (kcal/mol)
Give just the numeric value; kcal/mol need not be written.

Return reported folding enthalpy; argument: GACTAGACGAAAGTCGTC (((..(((....))))))
-13

Return reported folding enthalpy; argument: GTAGCACGAAAGTGTAC (((.(((....))))))
-14.2

Return reported folding enthalpy; argument: GATCCGCTTACGGATC ((((((....))))))
-37.3

Return reported folding enthalpy; argument: GATAACGAAAGTTAGATC ((((((....)))..)))
-16.8

Return reported folding enthalpy; argument: GGGGCCGGAAACGGCCTC (.(((((....))))).)
-10.4

Return reported folding enthalpy; argument: GATGACGAAAGTCGTATC ((((((....)))..)))
-12.1

Return reported folding enthalpy; argument: GAGTACGAAAGTAGCTC ((((((....))).)))
-23.3

Return reported folding enthalpy; argument: GATCTACACATAGATC ((((((....))))))
-44.3

Return reported folding enthalpy; argument: GTACAAGGAAACTTGCAC ((.((((....)))).))
-25.4

Return reported folding enthalpy; argument: GTCAGCGGAAACGTTGGC (.((.((....)).)).)
-26

Return reported folding enthalpy; argument: GATAGACCGAAAGGTATC (((..(((....))))))
-11.3

Return reported folding enthalpy; argument: GCCTAGGGAAACCTGGGC (((.(((....))).)))
-38.3

Return reported folding enthalpy; argument: GACCCGACGAAAGTCGTC (((..(((....))))))
-6.62

Return reported folding enthalpy; argument: GAAGGACGAAAGTCATTC (((.(((....))).)))
-30.8

Return reported folding enthalpy; argument: CGTGCGGAAACGCGGACG ((((((....)))..)))
-19.2

Return reported folding enthalpy; argument: ATGGGGAAACCCAT (((((....)))))
-23.4

Return reported folding enthalpy; argument: GCGTGTGGAAACACACAC (.(((((....))))).)
-13.7

Return reported folding enthalpy; argument: GCGTCTACACGC ((((....))))
-25.9

Return reported folding enthalpy; argument: GACTACGAAAGTAGGTC ((((((....))).)))
-17.5

Return reported folding enthalpy; argument: GATCTGGTTCAGATC ((((((...))))))
-36.5

Return reported folding enthalpy; argument: GATCACTAGCGTGATC ((((((....))))))
-41.8

Return reported folding enthalpy; argument: GAGACCGAAAGGTAACTC ((((((....)))..)))
-12.3

Return reported folding enthalpy; argument: GAACTGGAAACAGTTC ((((((....))))))
-32.4

Return reported folding enthalpy; argument: GATCAGCTGGCTGATC ((((((....))))))
-34.1

Return reported folding enthalpy; argument: CACGGGAAACCGTG (((((....)))))
-30.9

Return reported folding enthalpy; argument: GTGAGGGGAAACCTTCAC ((((.((....)).))))
-28.8

Return reported folding enthalpy; argument: GCCCCGGGAAACCAGGGC ((((.((....)).))))
-33

Return reported folding enthalpy; argument: GATCCAGATTTGGATC ((((((....))))))
-30

Return reported folding enthalpy; argument: GCCATACGAAAGTAGGGC (((.(((....))).)))
-38

Return reported folding enthalpy; argument: GCATGGCCGAAAGGCTGC (((..(((....))))))
-13.2

Return reported folding enthalpy; argument: GCGCCAGGAAACCGGCGC (((((.(....).)))))
-22.8

Return reported folding enthalpy; argument: GCTGTCGCGAAAGCGAGC (((..(((....))))))
-8.75

Return reported folding enthalpy; argument: GATCGATAGGTCGATC ((((((....))))))
-42.2

Return reported folding enthalpy; argument: GGGCGTGGAAACATGCCC ((((.((....)).))))
-42.9

Return reported folding enthalpy; argument: GGATCTGGAAACAGATCC (((((((....)))))))
-47.9

Return reported folding enthalpy; argument: GTTGTGGGAAACCACAGC (.(((((....))))).)
-20

Return reported folding enthalpy; argument: GATCGAACAGTCGATC ((((((....))))))
-31.4

Return reported folding enthalpy; argument: GCTTGTGAAAACAAGC ((((((....))))))
-34.3

Return reported folding enthalpy; argument: GAATCCGGAAACGGACTC ((.((((....)))).))
-17.9

Return reported folding enthalpy; argument: GAACTGCGAAAGCAATTC (((.(((....))).)))
-21.7

Return reported folding enthalpy; argument: GTCGATCCGAAAGGAGAC (((..(((....))))))
-22.7

Return reported folding enthalpy; argument: GCACTCGGAAACAAGTGC (((((.(....).)))))
-29.3

Return reported folding enthalpy; argument: GCGTTCGTACGC ((((....))))
-22.1

Return reported folding enthalpy; argument: GATCAGCGCACTGATC ((((((....))))))
-40.4

Return reported folding enthalpy; argument: GCTCCAACGAAAGTTAGC (((..(((....))))))
-11.8

Return reported folding enthalpy; argument: GATCCATAGGTGGATC ((((((....))))))
-36

Return reported folding enthalpy; argument: GTAGTCGAAAGACAGTAC ((((((....)))..)))
-12.5

Return reported folding enthalpy; argument: GCCTTGCGAAAGCATAGC ((..(((....)))..))
-9.69

Return reported folding enthalpy; argument: GAACACGAAAGTGGATTC ((((((....)))..)))
-18.6

Return reported folding enthalpy; argument: GATCCAATGTGGATC ((((((...))))))
-32.5

Return reported folding enthalpy; argument: GTTGGGTCGAAAGACAAC (((..(((....))))))
-18.2
